Reference for the values: patent US20250154202A1

Assay: Plasma stability, mouse plasma
Settings: mouse plasma, 37° C., timepoint 2 h
Bridge positions count the residues as written; N and C are the ends. Peptide text beside a SMILES is read from it.
property.name: Mean (compound concentration)
Numbers only.

Which Mean (compound concentration) reading was recorded for the molecule CC(=O)N[C@@H](CO)C(=O)N[C@@H](CCCNC(=N)N)C(=O)N[C@@H](CC(C)C)C(=O)N[C@@H](CCC(=O)O)C(=O)N[C@@H](CCC(=O)O)C(=O)N[C@@H](CCC(=O)O)C(=O)N[C@@H](CC(C)C)C(=O)N[C@@H](CCCNC(=N)N)C(=O)N[C@H]1CCCCNC(=O)CC[C@@H](C(N)=O)NC(=O)[C@H]([C@@H](C)O)NC(=O)[C@H](CC(C)C)NC(=O)[C@H](CCCNC(=N)N)NC1=O [SD15193] (Ac-SRLEEELRKRLTE-NH2; lactam 9-13) ?
2.88

* * *

Assay: Plasma stability, mouse plasma
Conditions: mouse plasma, 37° C., timepoint 6 h
Bridge positions count the residues as written; N and C are the ends. Peptide text beside a SMILES is read from it.
For each entry below, report its Mean (compound concentration) value.
One number for each entry.

Would you mind telling me what Mean (compound concentration) value was observed for CC(=O)N[C@@H](CO)C(=O)N[C@@H](CCCNC(=N)N)C(=O)N[C@@H](CC(C)C)C(=O)N[C@@H](CCC(=O)O)C(=O)N[C@H]1CCC(=O)NCCCC[C@@H](C(=O)N[C@@H](CCCNC(=N)N)C(=O)N[C@@H](CC(C)C)C(=O)N[C@H](C(=O)N[C@@H](CCC(=O)O)C(N)=O)[C@@H](C)O)NC(=O)[C@H](CCCNC(=N)N)NC(=O)[C@H](CC(C)C)NC(=O)[C@H](CCC(=O)O)NC1=O [SD15194] (Ac-SRLEEELRKRLTE-NH2; lactam 5-9) ?
2.20

---
Field request: Mean (compound concentration) | item: CC(=O)N1CCC[C@H]1C(=O)N[C@@H](CO)C(=O)N[C@@H](CCCNC(=N)N)C(=O)N[C@@H](CC(C)C)C(=O)N[C@H]1CCC(=O)NCCCC[C@@H](C(=O)N[C@@H](CCCNC(=N)N)C(=O)N[C@@H](CCCNC(=N)N)C(=O)N[C@@H](CC(C)C)C(=O)N[C@H](C(=O)N[C@@H](CCC(=O)O)C(N)=O)[C@@H](C)O)NC(=O)[C@H](CC(C)C)NC(=O)[C@H](CCC(=O)O)NC(=O)[C@H](CCC(=O)O)NC1=O [SD15806] (Ac-PSRLEEELKRRLTE-NH2; lactam 5-9)
2.265

* * *

For each entry below, report its Tube 1 (compound concentration) value.
Experiment: Plasma stability, human plasma
Conditions: human plasma, 37° C., timepoint 6 h
Bridge positions count the residues as written; N and C are the ends. Peptide text beside a SMILES is read from it.
Numbers only.

Query: Tube 1 (compound concentration); subject: CC(=O)N[C@@H](CO)C(=O)N[C@@H](CCCNC(=N)N)C(=O)N[C@@H](CC(C)C)C(=O)N[C@@H](CCC(=O)O)C(=O)N[C@@H](CCC(=O)O)C(=O)N[C@@H](CCC(=O)O)C(=O)N[C@@H](CC(C)C)C(=O)N[C@@H](CCCNC(=N)N)C(=O)N[C@H]1CCCCNC(=O)CC[C@@H](C(N)=O)NC(=O)[C@H]([C@@H](C)O)NC(=O)[C@H](CC(C)C)NC(=O)[C@H](CCCNC(=N)N)NC1=O [SD15193] (Ac-SRLEEELRKRLTE-NH2; lactam 9-13)
2.774

// next item, Tube 1 (compound concentration) requested
Given CC(=O)N[C@@H](CO)C(=O)N[C@@H](CCCNC(=N)N)C(=O)N[C@@H](CC(C)C)C(=O)N[C@@H](CCC(=O)O)C(=O)N[C@H]1CCC(=O)NCCCC[C@@H](C(=O)N[C@@H](CCCNC(=N)N)C(=O)N[C@@H](CC(C)C)C(=O)N[C@H](C(=O)N[C@@H](CCC(=O)O)C(N)=O)[C@@H](C)O)NC(=O)[C@H](CCCNC(=N)N)NC(=O)[C@H](CC(C)C)NC(=O)[C@H](CCC(=O)O)NC1=O [SD15194] (Ac-SRLEEELRKRLTE-NH2; lactam 5-9) , state its recorded Tube 1 (compound concentration).
1.884

* * *

Exercise: state measured Tube 2 (compound concentration) for each of the compounds provided.
Test: Plasma stability, human plasma
Details: human plasma, 37° C., timepoint 0 h
Bridge positions count the residues as written; N and C are the ends. Peptide text beside a SMILES is read from it.
Numbers only.

Quick one: Tube 2 (compound concentration) of CC(=O)N1CCC[C@H]1C(=O)N[C@@H](CO)C(=O)N[C@@H](CCCNC(=N)N)C(=O)N[C@@H](CC(C)C)C(=O)N[C@H]1CCC(=O)NCCCC[C@@H](C(=O)N[C@@H](CCCNC(=N)N)C(=O)N[C@@H](CCCNC(=N)N)C(=O)N[C@@H](CC(C)C)C(=O)N[C@H](C(=O)N[C@@H](CCC(=O)O)C(N)=O)[C@@H](C)O)NC(=O)[C@H](CC(C)C)NC(=O)[C@H](CCC(=O)O)NC(=O)[C@H](CCC(=O)O)NC1=O [SD15806] (Ac-PSRLEEELKRRLTE-NH2; lactam 5-9) ?
2.965

In the following, a different compound is considered.
Requested field: Tube 2 (compound concentration). Item: CC(=O)N[C@@H](CO)C(=O)N[C@@H](CCCNC(=N)N)C(=O)N[C@@H](CC(C)C)C(=O)N[C@@H](CCC(=O)O)C(=O)N[C@H]1CC(=O)NCCCC[C@@H](C(=O)N[C@@H](CCCNC(=N)N)C(=O)N[C@@H](CC(C)C)C(=O)N[C@H](C(=O)N[C@@H](CCC(=O)O)C(N)=O)[C@@H](C)O)NC(=O)[C@H](CCCNC(=N)N)NC(=O)[C@H](CC(C)C)NC(=O)[C@H](CCC(=O)O)NC1=O [SD15196] (Ac-SRLEDELRKRLTE-NH2; lactam 5-9)
2.424
